Bacillus subtilis: reported MIC for various molecules.
MEASUREMENT_KIND: MIC (µg/mL)

INSERT INTO measurements (molecule, target_system, value_measured) VALUES
  ('C[n+]1c(SCC2=C(C(=O)[O-])N3C(=O)[C@@H](NC(=O)/C(=N\OC(C)(C)C(=O)O)c4csc(N)n4)[C@H]3SC2)ccc2c1CCCC2 [Example 18]', 'Bacillus subtilis', 12.5);

(I) CO/N=C(\C(=O)N[C@@H]1C(=O)N2C(C(=O)[O-])=C(CSc3cc[n+](C)c4c3CCC4)CS[C@H]12)c1csc(N)n1 [Example 2]
(II) Cc1cc(SCC2=C(C(=O)[O-])N3C(=O)[C@@H](NC(=O)/C(=N\OC[C@@H](N)C(=O)O)c4csc(N)n4)[C@H]3SC2)c2c([n+]1C)CCCC2 [Example 12]
Inquiry: When the recorded MIC values are compared, which is smaller: that of I or that of II ? I would appreciate it if you answered with the label of your choice.
Reply text: I
(I: 1.56 µg/mL, II: 12.5 µg/mL)
